- Target or system: UniProt P10828
- Sequence (P10828 whole entry): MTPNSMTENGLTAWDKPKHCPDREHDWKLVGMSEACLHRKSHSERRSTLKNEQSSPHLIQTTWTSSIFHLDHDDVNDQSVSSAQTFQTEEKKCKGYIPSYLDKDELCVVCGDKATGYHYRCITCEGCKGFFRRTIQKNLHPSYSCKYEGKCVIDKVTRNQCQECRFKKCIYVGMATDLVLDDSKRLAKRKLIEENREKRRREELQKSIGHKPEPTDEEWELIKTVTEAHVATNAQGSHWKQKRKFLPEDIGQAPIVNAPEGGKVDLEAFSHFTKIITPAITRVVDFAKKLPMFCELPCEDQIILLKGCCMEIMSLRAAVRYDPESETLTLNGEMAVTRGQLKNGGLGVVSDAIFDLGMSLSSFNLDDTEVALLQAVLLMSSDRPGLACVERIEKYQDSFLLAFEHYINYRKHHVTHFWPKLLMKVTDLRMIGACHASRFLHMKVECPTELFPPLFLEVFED
Parameter: pKd
Note: pKd values are expressed as the negative base-10 logarithm of concentration in M.

>  <Smiles text>
Cc1cc(OCC(=O)O)cc(C)c1Oc1ccc(O)c(C(C)C)c1

>  <Target or system>
UniProt P10828

>  <pKd>
9.44

$$$$

Switching to the query record.
[Q] Dear colleague, I am looking for the recorded pKd of the following compound: Cc1cc(CCC(=O)O)cc(C)c1Cc1ccc(O)c(C(C)C)c1
[A] 9.66
